meta.source: PubChem BioAssay AID179

Some compounds, each annotated with its measured pIC50.
- Test system: CEM cells HIV-1 protection, formazan growth assay
- test.summary: NCI AIDS Antiviral Assay
- reported.conditions: measured here: growth of uninfected CEM cells
pIC50: −log10 of the molar value.

Below, 9 compounds whose answers are already recorded.
compound	pIC50
CC1(O)OC(=O)C2=C1CCC1C2CCC2(C)C(O)CCC12 (stereo not given)	< 3.70
O=C1/C(=C/c2cccc([N+](=O)[O-])c2)CCc2ccccc21	< 5.01
Cc1ncc([N+](=O)[O-])n1CCNS(=O)(=O)CCCn1ncnc1[N+](=O)[O-]	< 3.70
[N-]=[N+]=CC(=O)OC1Cc2ccccc2C1	< 3.70
O=C1[C@@H]2C(c3ccccc3[N+](=O)[O-])=NO[C@@H]2C(=O)N1c1ccc(Cc2ccc(N3C(=O)[C@H]4C(c5ccccc5[N+](=O)[O-])=NO[C@H]4C3=O)cc2)cc1	< 4.70
O=C(O)Cc1cccc2c1OC(c1ccccc1)C(C(=O)c1ccccc1)C2=O (stereo not given)	4.12
C/C(CC1SCCCS1)=C(/C)CC1SCCCS1	< 3.70
CCCCCC(=O)c1c(O)cc2c(c1O)C(=O)c1c(O)cc(O)cc1C2=O	4.25
NC(=O)c1ncn(CCCCCO)c1N	< 3.70

Okay, now this compound:
Look up pIC50: COc1ccc(C2=CC(=O)CCC2)cc1
< 3.75

====

- Tested on: CEM cells HIV-1 protection, formazan growth assay
- test.summary: NCI AIDS Antiviral Assay
- reported.conditions: measured here: growth of uninfected CEM cells
quantity.measured: log10 of IC50 (log10 of the value in µM)
Give log10 of IC50, with IC50 taken in µM.

Below, 4 compounds whose answers are already recorded.
compound	target.under.test	log10 of IC50
O=S1(=O)c2ccccc2N(O)C2=NCCN21	CEM cells HIV-1 protection, formazan growth assay	1.96
O/N=C1/CC2(N3CCOCC3)C3CC/C(=N\O)C2CC1(Cc1ccccc1)C3 (stereo not given)	CEM cells HIV-1 protection, formazan growth assay	2.09
O=c1[nH]c2ccccc2n1C1CCN(CCOc2ccccc2)CC1	CEM cells HIV-1 protection, formazan growth assay	1.37
CCCCCC=C(c1cc(I)c(OC)c(C(=O)OC)c1)c1cc(I)c(OC)c(C(=O)OC)c1	CEM cells HIV-1 protection, formazan growth assay	2.22

For CEM cells HIV-1 protection, formazan growth assay, provide log10 of IC50 of Cc1ccc(-c2cc[n+]3c(n2)oc2ccccc23)cc1 please.
0.56

For CEM cells HIV-1 protection, formazan growth assay, provide log10 of IC50 of COc1ccc(N2NC(c3ccccc3)(c3ccccc3)C(C)C2=O)cc1 (stereo not given) please.
1.04

For CEM cells HIV-1 protection, formazan growth assay, provide log10 of IC50 of c1ccc(C(c2ccccc2)[P+](c2ccccc2)(c2ccccc2)c2ccccc2)cc1 please.
-0.43

====

- System: CEM cells HIV-1 protection, formazan growth assay
- test.summary: NCI AIDS Antiviral Assay
- reported.conditions: measured here: growth of uninfected CEM cells
quantity.measured: pIC50
// pIC50: -log10(molar conc.)

Below, 2 compounds whose answers are already recorded.
compound	quantity.measured	val
CCCCCC=C(c1cc(C)c(OC)c(C(=O)OC)c1)c1cc(C)c(OC)c(C(=O)OC)c1	pIC50	4.59
C=C(C)[C@@H]1CC[C@@]2(C)[C@H]1[C@H]1CCC3[C@@]4(C)CC[C@H](O)C(C)(C)[C@@H]4CC[C@@]3(C)[C@]1(C)C[C@@H]2O (some centres undefined)	pIC50	4.18

Look up pIC50: Cc1cccc(C(C)C)c1NC(=O)C(=O)CC(=O)c1c(C)n([O-])c2ccccc2[n+]1=O
4.77

Look up pIC50: O=c1[nH]c(=O)n(C2CC(O)C(COP(=O)(OCc3ccc([N+](=O)[O-])o3)N3CCCCC3)O2)cc1F (centres undefined)
6.77

====

Some compounds, each annotated with its measured pEC50.
- Test system: CEM cells HIV-1 protection, formazan growth assay
- test.summary: NCI AIDS Antiviral Assay
pEC50: −log10 of the molar value.

compound	pEC50
[C-]#[O+].[C-]#[O+].[C-]#[O+].[C-]#[O+].[C-]#[O+].[Mo+2].[Mo+4].[c-]1[c-][c-][cH-][c-]1.[c-]1[c-][c-][cH-][c-]1.c1ccc([PH+](CC[PH+](c2ccccc2)c2ccccc2)c2ccccc2)cc1	< 5.36

For CEM cells HIV-1 protection, formazan growth assay, provide pEC50 of O=C1[C@H](Cc2ccccc2)C[C@H]2CO[C@H](c3ccccc3)N12 please.
< 3.70

For CEM cells HIV-1 protection, formazan growth assay, provide pEC50 of CCCCc1c2c(nc3c1CCc1cc4cc5c(nc4nc1-3)-c1nc3c(c(CCCC)c1CC5)CCC/C3=N/OC)/C(=N\OC)CCC2 please.
< 4.00

For CEM cells HIV-1 protection, formazan growth assay, provide pEC50 of COc1ccc(C2OCCN2C)cc1 (centres undefined) please.
< 3.70

====

Some compounds, each annotated with its measured pIC50.
- System: CEM cells HIV-1 protection, formazan growth assay
- test.summary: NCI AIDS Antiviral Assay
- reported.conditions: measured here: growth of uninfected CEM cells
pIC50: −log10 of the molar value.

Below, 3 compounds whose answers are already recorded.
compound	pIC50
CC1(C)OC2O[C@H](C3OC[C@H]4O[C@@H](n5ccc(=O)[nH]c5=O)C(O)[C@H]4N3O)[C@@H]3OC(C)(C)O[C@@H]3C2O1 (some centres undefined)	3.98
Cn1c(=O)c2nccnc2n(C)c1=O	< 3.70
CC[C@H](OCc1ccccc1)/C(C)=C/CC(C)/C=C(/C[C@]1(C)OC(=O)N2CCC[C@H]21)[Si](C)(C)C (some centres undefined)	< 4.97

For CEM cells HIV-1 protection, formazan growth assay, provide pIC50 of CCOC(=O)CCC(NC(=O)C(N)c1ccc([N+](=O)[O-])cc1)C(=O)NC(CCC(=O)OCC)C(=O)OCC (centres undefined) please.
< 3.70

====

- System: CEM cells HIV-1 protection, formazan growth assay
- test.summary: NCI AIDS Antiviral Assay
Activity calls are given as the source filed them.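 Rule for the calls: active = compounds giving half or more protection of infected cells from virus-caused growth loss, again on retest; inactive = the rest.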
quantity.measured: outcome

molecule	target.under.test	outcome
Cn1c(=O)nc2n(-c3ccc(F)c(F)c3)c3ccccc3nc-2c1=O	CEM cells HIV-1 protection, formazan growth assay	inactive
O=C1OC(/C=C/c2ccccc2)Sc2ccccc21 (stereo not given)	CEM cells HIV-1 protection, formazan growth assay	inactive
COc1ccc(/C(C)=N/NC(N)=S)c(OC)c1	CEM cells HIV-1 protection, formazan growth assay	inactive
CCC1(C)NN=c2s/c(=C/c3ccc(OC)cc3)c(=O)n2N1 (stereo not given)	CEM cells HIV-1 protection, formazan growth assay	inactive
CN1C(=O)C(O)C[C@@H]1c1ccc(F)cc1 (stereo not given in full)	CEM cells HIV-1 protection, formazan growth assay	inactive
O=S(=O)(O)OC1CCCCC1Nc1ccccc1 (stereo not given)	CEM cells HIV-1 protection, formazan growth assay	inactive
C=C1C=CC2(Br)OC3CC(C)(Cl)C(Br)CC13C2(C)C (stereo not given)	CEM cells HIV-1 protection, formazan growth assay	inactive
CCOC(=O)N1CCC(=O)C[C@@H]1C/C=C/P1(=O)O[C@H](c2ccccc2)C(C)N1C(C)C (stereo not given in full)	CEM cells HIV-1 protection, formazan growth assay	inactive
c1ccc2c(c1)[nH]c1cnc3c4ncccc4[nH]c3c12	CEM cells HIV-1 protection, formazan growth assay	inactive
COc1nc2c(nc(N)n2C2OCC(O)C(O)C2O)c(=O)n1C (stereo not given)	CEM cells HIV-1 protection, formazan growth assay	inactive

Look up outcome: CN(C)c1ccc(/C=C(\NC(=O)c2ccccc2)c2nc3ncncc3[nH]2)cc1
inactive

Look up outcome: CCOC(=O)c1cc2c3c(c(O)c(OC)c2s1)N(C(=O)c1cc2c4c(c(O)c(OC)c2s1)N(C(C)=O)CC4)CC3
inactive

====

- System: CEM cells HIV-1 protection, formazan growth assay
- test.summary: NCI AIDS Antiviral Assay
- reported.conditions: measured here: growth of uninfected CEM cells
pIC50: −log10 of the molar value.
quantity.measured: pIC50

Below, 3 molecules whose answers are already recorded.
molecule	target.under.test	quantity.measured	val
O=NCC(=O)OCc1ccccc1	CEM cells HIV-1 protection, formazan growth assay	pIC50	< 3.70
c1ccc2sc(SCN3CCCCC3)nc2c1	CEM cells HIV-1 protection, formazan growth assay	pIC50	4.09
COc1ccc(CN=CN/C(C#N)=C(\N)C#N)cc1OC	CEM cells HIV-1 protection, formazan growth assay	pIC50	< 3.70

For CEM cells HIV-1 protection, formazan growth assay, provide pIC50 of Cc1nn(C2OC(CO)C(O)C(F)C2O)c(=O)[nH]c1=O (configuration not stated) please.
< 3.70

For CEM cells HIV-1 protection, formazan growth assay, provide pIC50 of COc1ccc(C(C#N)NNc2nc(C)cc(=O)[nH]2)cc1OC (configuration not stated) please.
3.63

For CEM cells HIV-1 protection, formazan growth assay, provide pIC50 of CCN1C[C@]2(C)CC[C@H](OC)C34C5C[C@@H]6[C@@H](OC)C[C@@](OC)(C5[C@H]6OCc5ccccc5)C(C13)[C@H](OC(C)=O)[C@@H]42 (some centres not stated) please.
3.98
